# System: HCI-015 (organoid from a triple-negative breast cancer xenograft)
# assayInfo: CTG-3D luminescence at 96 h relative to day-0 seeding control (ratio to day 0); higher = more growth / less cytotoxicity; PDxO 3D drug screen, 96 h, CTG-3D normalised to day-0 seeding control.
# conditions: 1 µM; days in culture: 191
experimentalEndpoint: CTG-3D luminescence at 96 h
Please give only the number in your answer, with no unit.

CC(C)(C(=O)NCC(F)(F)C(F)(F)F)C(=O)N[C@@H]1C(=O)Nc2ccccc2-c2ccccc21
0.523
C[C@]12CC[C@@H]3c4ccc(O)cc4C[C@@H](CCCCCCCCC[S+]([O-])CCCC(F)(F)C(F)(F)F)[C@H]3[C@@H]1CC[C@@H]2O (some centres not stated)
1.56
Cc1nc(-c2cn3c(n2)-c2ccc(-c4cnn(C(C)(C)C(N)=O)c4)cc2OCC3)n(C(C)C)n1
1.12
C=CC(=O)N1CCC[C@@H](n2nc(-c3ccc(Oc4ccccc4)cc3)c3c(N)ncnc32)C1
0.827
CC1(C)CCC(c2ccc(Cl)cc2)=C(CN2CCN(c3ccc(C(=O)NS(=O)(=O)c4ccc(N[C@H](CCN5CCOCC5)CSc5ccccc5)c(S(=O)(=O)C(F)(F)F)c4)cc3)CC2)C1
1.87

Exercise: Value lookup for CTG-3D luminescence at 96 h; key = "CCN1CCN(Cc2ccc(Nc3ncc(F)c(-c4cc(F)c5nc(C)n(C(C)C)c5c4)n3)nc2)CC1"
Key: 1.45

Exercise: Another compound to check: "C=CCn1c(=O)c2cnc(Nc3ccc(N4CCN(C)CC4)cc3)nc2n1-c1cccc(C(C)(C)O)n1"
Key: 0.612

Measured values drawn from the supplement of paper PMC8882468 for this set.
